The values you see were collected from ChEMBL document CHEMBL5724801.

test system: Fibroblast; assay: Multiplex assay against human fibroblast; type: toxicity, cell-based; conditions: 48 h, 1 µM, compound concentration 1 uM
Kindly supply the reported Population Normal (%) values for the records listed here.

Q: Entry `CNc1nc(NCc2ncccn2)c2c(-c3ccc4ncccc4c3)c[nH]c2n1` : reported Population Normal (%) = ?
A: 100%

Q: Population Normal (%) for `FC(F)(F)c1ccccc1-c1cc(C(F)(F)F)c2[nH]c(C3=NOC4(CCCCC4)C3)nc2c1` ?
A: 100%

Q: What value of Population Normal (%) has been reported for the following molecule? `O=C(Nc1ccccc1Br)N[C@@H]1CCN(c2ccc(C(F)(F)F)cn2)C1`
A: 100%

Q: // lookup Population Normal (%) for `Cc1noc(C)c1-c1cnc2c(-c3ccc(C(=O)O)cc3)cn([C@@H](C)c3ccccn3)c2c1`
A: 100%

Q: What value of measured Population Normal (%) is listed for `CN(C)CCOc1ccc(/C(=C(/CCCO)c2ccccc2)c2ccc(O)cc2)cc1` ?
A: 100%

Q: // Population Normal (%) lookup, key: `Clc1ccccc1C(c1ccccc1)(c1ccccc1)n1cccn1`
A: 100%

Q: Would you kindly share the measured Population Normal (%) for `CCCC(CCC)C(=O)O` ?
A: 92%

Q: If you can, please state the reported Population Normal (%) value of `CC(C)C[C@H](NC(=O)c1cc2ccccc2s1)C(=O)N1CCN(C(=O)[C@H](CO)NS(=O)(=O)c2ccc(Cl)cc2Cl)CC1` .
A: 100%
